Target entity: UniProt E1BKU0
Sequence (E1BKU0 1-401): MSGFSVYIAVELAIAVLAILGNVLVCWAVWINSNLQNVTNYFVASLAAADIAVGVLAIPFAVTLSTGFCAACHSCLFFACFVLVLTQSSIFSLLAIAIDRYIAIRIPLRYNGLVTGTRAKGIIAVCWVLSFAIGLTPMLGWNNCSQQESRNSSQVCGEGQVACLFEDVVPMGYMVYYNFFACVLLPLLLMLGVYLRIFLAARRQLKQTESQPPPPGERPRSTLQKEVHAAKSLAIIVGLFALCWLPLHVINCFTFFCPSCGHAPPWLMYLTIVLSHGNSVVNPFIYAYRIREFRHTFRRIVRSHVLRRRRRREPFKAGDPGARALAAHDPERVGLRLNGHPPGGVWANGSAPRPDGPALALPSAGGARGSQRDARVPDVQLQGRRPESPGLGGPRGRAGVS
Experiment notes: Competitive binding assay in bovine brain using 125I-PAPA-APEC (striatal membranes)
Parameters: Bovine striatal membranes; from tissue; host or cells: bovine (calf) striatal membranes
Recorded conditions: bovine striatum; 11, 12 and 14: apparent Ki; read-out: Ki, inhibition of binding of 125I-PAPA-APEC at A2-receptors
pKi: −log10 of the molar value.
Measurement kind: pKi

Below: 3 compounds and their reported pKi.
>>> numeric_result("CCNC(=O)[C@H]1O[C@@H](n2cnc3c(N)nc(NCCc4ccc(CCC(=O)NCCCCNC(=O)c5ccc(CF)cc5)cc4)nc32)[C@H](O)[C@@H]1O")
7.60
>>> numeric_result("CCNC(=O)[C@H]1O[C@@H](n2cnc3c(N)nc(NCCc4ccc(CCC(=O)NCCNC(=O)CCc5ccc(O)cc5)cc4)nc32)[C@H](O)[C@@H]1O")
7.88
>>> numeric_result("CCNC(=O)[C@H]1O[C@@H](n2cnc3c(N)nc(NCCc4ccc(CCC(=O)NCCNC(=O)CBr)cc4)nc32)[C@H](O)[C@@H]1O")
7.80

I. CCNC(=O)[C@H]1O[C@@H](n2cnc3c(N)nc(NCCc4ccc(CCC(=O)NCCNC(=S)Nc5ccc(-c6c7ccc(=O)cc-7oc7cc(O)ccc67)c(C(=O)O)c5)cc4)nc32)[C@H](O)[C@@H]1O
II. CCNC(=O)[C@H]1O[C@@H](n2cnc3c(N)nc(NCCc4ccc(CCC(=O)NCCNC(=O)Cc5cccs5)cc4)nc32)[C@H](O)[C@@H]1O
Given the listed items, does I or II have the lesser reported pKi? Lab log: write the label of the selected item as the result.
I

----------
Target entity: A2-adenosine receptors (Rattus norvegicus)
Construct: rat striatal membranes; from tissue; host or cells: rat striatal membranes
Experiment notes: Inhibition of binding of [3H]CGS21680 to A2-adenosine receptors in rat striatal membranes
Recorded conditions: read-out: Ki, inhibition of binding of [3H]CGS21680 at A2-receptors; rat striatum; 11, 12 and 14: apparent Ki
Method: Stock solutions of representative compounds of the present invention in the millimolar concentration range in dimethylsulfoxide were prepared for the binding assays. […] Protein was determined using the BCA (based on the complex with cuprous ions and bicinchoninic acid) protein assay reagents purchased from Pierce Chemical Co., Rockford, Ill. The membrane suspension was then centrifuged at 37,000×g for 20 min at 4° C. […]
Measurement kind: pKi
Remember the convention: pKi equals -log10 of concentration in molar.

Per the record, CCNC(=O)[C@H]1O[C@@H](n2cnc3c(N)nc(NCCc4ccc(CCC(=O)NCCNC(=S)NC5CC(C)(C)N([O])C(C)(C)C5)cc4)nc32)[C@H](O)[C@@H]1O has pKi of 7.57

----------
Target entity: A2-adenosine receptors (Rattus norvegicus)
Construct: rat striatal membranes; from tissue; host or cells: rat striatal membranes
Experiment notes: Inhibition of binding of [3H]NECA to A2-adenosine receptors in rat striatal membranes
Recorded conditions: read-out: Ki, inhibition of binding of [3H]NECA at A2-receptors; rat striatum; 11, 12 and 14: apparent Ki
Measurement kind: Ki (nM)
Lab book: enter the figure in nM, no units written.

Query CCNC(=O)[C@H]1O[C@@H](n2cnc3c(N)nc(NCCc4ccc(CCC(=O)NCCN)cc4)nc32)[C@H](O)[C@@H]1O yields Ki of 5.73

----------
Target entity: A2-adenosine receptors (Rattus norvegicus, UniProt P30543)
Construct: rat striatal membranes; from tissue; host or cells: rat striatal membranes
Sequence (P30543 whole entry): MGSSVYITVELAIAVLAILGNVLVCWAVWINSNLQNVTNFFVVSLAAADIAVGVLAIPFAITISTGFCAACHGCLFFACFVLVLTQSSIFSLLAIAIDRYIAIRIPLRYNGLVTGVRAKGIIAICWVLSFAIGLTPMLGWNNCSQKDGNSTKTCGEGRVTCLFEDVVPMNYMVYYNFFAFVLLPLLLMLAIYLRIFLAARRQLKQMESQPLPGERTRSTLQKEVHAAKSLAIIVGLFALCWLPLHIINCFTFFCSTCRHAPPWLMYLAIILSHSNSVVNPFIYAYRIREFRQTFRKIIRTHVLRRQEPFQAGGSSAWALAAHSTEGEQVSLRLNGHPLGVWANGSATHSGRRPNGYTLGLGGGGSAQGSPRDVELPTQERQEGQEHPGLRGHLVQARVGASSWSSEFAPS
Experiment notes: Inhibition of binding of [3H]NECA to A2-adenosine receptors in rat striatal membranes
Method: Stock solutions of representative compounds of the present invention in the millimolar concentration range in dimethylsulfoxide were prepared for the binding assays. […] Protein was determined using the BCA (based on the complex with cuprous ions and bicinchoninic acid) protein assay reagents purchased from Pierce Chemical Co., Rockford, Ill. N^6 -Cyclopentyladenosine was present at 50 nM to inhibit binding of the ligand at A1 -adenosine receptors.
pKi: −log10 of the molar value.
Measurement kind: pKi

>>> numeric_result("NCCNC(=O)Cc1ccc(NC(=O)Cc2ccc(Nc3ncnc4c3ncn4[C@@H]3O[C@H](CO)[C@@H](O)[C@H]3O)cc2)cc1 [ADAC, reference compound]")
6.68
>>> numeric_result("CCNC(=O)[C@H]1O[C@@H](n2cnc3c(N)nc(NCCc4ccc(CCC(=O)NCCNC(=S)Nc5cccc(N=C=S)c5)cc4)nc32)[C@H](O)[C@@H]1O")
8.55

I. CCNC(=O)[C@H]1O[C@@H](n2cnc3c(N)nc(NCCc4ccc(CCC(=O)NCCNC(=O)Cc5ccc(NC(=O)OCc6ccccc6)cc5)cc4)nc32)[C@H](O)[C@@H]1O
II. CCNC(=O)[C@H]1O[C@@H](n2cnc3c(N)nc(NCCc4ccc(CCC(=O)OC)cc4)nc32)[C@H](O)[C@@H]1O
// compare: I vs II , metric pKi, want the smaller // caller expects the label of the chosen entry
II
(II: 7.76, I: 8.25)

----------
Target entity: A2-adenosine receptors (Rattus norvegicus)
Construct: rat striatal membranes; from tissue; host or cells: rat striatal membranes
Experiment notes: Inhibition of binding of [3H]CGS21680 to A2-adenosine receptors in rat striatal membranes
Measurement kind: pKi
In plain terms, pKi is the concentration in mol/L turned into minus its base-10 logarithm.

// solved cases for pKi follow
>>> numeric_result("CCNC(=O)[C@H]1O[C@@H](n2cnc3c(N)nc(NCCc4ccc(CCC(=O)NCCNC(=S)Nc5cccc(N=C=S)c5)cc4)nc32)[C@H](O)[C@@H]1O")
7.66
>>> numeric_result("NCCNC(=O)Cc1ccc(NC(=O)Cc2ccc(Nc3ncnc4c3ncn4[C@@H]3O[C@H](CO)[C@@H](O)[C@H]3O)cc2)cc1 [ADAC, reference compound]")
6.66

Note: attention shifts to another entry.
A2-adenosine receptors (Rattus norvegicus) assay, compound CCNC(=O)[C@H]1O[C@@H](n2cnc3c(N)nc(NCCc4ccc(CCC(=O)NCCNC(=S)Nc5ccc(N=C=S)cc5)cc4)nc32)[C@H](O)[C@@H]1O , recorded pKi = 7.46

----------
Test system: A2-adenosine receptors
Experiment notes: Competitive binding assay in bovine brain using 125I-PAPA-APEC (striatal membranes)
Recorded conditions: ratio of Ki at A1-receptors (rat) versus Ki in the 125I-PAPA-APEC assay (bovine)
Measurement kind: Ki (A1)/K1 (A2)

Example molecules with recorded Ki (A1)/K1 (A2):
>>> numeric_result("CCNC(=O)[C@H]1O[C@@H](n2cnc3c(N)nc(NCCc4ccc(CCC(=O)NCCNC(=O)Cc5ccc(NC(=O)OCc6ccccc6)cc5)cc4)nc32)[C@H](O)[C@@H]1O")
45
>>> numeric_result("CCNC(=O)[C@H]1O[C@@H](n2cnc3c(N)nc(NCCc4ccc(CCC(=O)NCCNC(=O)c5cccc(NC(=O)OCc6ccccc6)c5)cc4)nc32)[C@H](O)[C@@H]1O")
78

A. CCNC(=O)[C@H]1O[C@@H](n2cnc3c(N)nc(NCCc4ccc(CCC(=O)NCCNC(=O)CBr)cc4)nc32)[C@H](O)[C@@H]1O
B. CCNC(=O)[C@H]1O[C@@H](n2cnc3c(N)nc(NCCc4ccc(CCC(=O)NCCNC(=O)c5cccc(N)c5)cc4)nc32)[C@H](O)[C@@H]1O
Two entries are listed, A and B . Which one carries the higher Ki (A1)/K1 (A2)? Kindly state the label of the option you pick.
A

a. CCNC(=O)[C@H]1O[C@@H](n2cnc3c(N)nc(NCCc4ccc(CCC(=O)OC)cc4)nc32)[C@H](O)[C@@H]1O
b. CCNC(=O)[C@H]1O[C@@H](n2cnc3c(N)nc(NCCc4ccc(CCC(=O)NCCCCNC(=O)c5ccc(CF)cc5)cc4)nc32)[C@H](O)[C@@H]1O
c. CCNC(=O)[C@H]1O[C@@H](n2cnc3c(N)nc(NCCc4ccc(CCC(=O)NCCNC(=O)Cc5ccc(N)cc5)cc4)nc32)[C@H](O)[C@@H]1O
// sort entries: Ki (A1)/K1 (A2), high to low Present the labels in the sequence the task asks for.
a, b, c

----------
Measured Ki by item
Target entity: A1-adenosine receptors (Rattus norvegicus)
Construct: rat cerebral cortex membranes; from tissue; host or cells: rat cerebral cortex membranes
Sequence (P25099 whole entry): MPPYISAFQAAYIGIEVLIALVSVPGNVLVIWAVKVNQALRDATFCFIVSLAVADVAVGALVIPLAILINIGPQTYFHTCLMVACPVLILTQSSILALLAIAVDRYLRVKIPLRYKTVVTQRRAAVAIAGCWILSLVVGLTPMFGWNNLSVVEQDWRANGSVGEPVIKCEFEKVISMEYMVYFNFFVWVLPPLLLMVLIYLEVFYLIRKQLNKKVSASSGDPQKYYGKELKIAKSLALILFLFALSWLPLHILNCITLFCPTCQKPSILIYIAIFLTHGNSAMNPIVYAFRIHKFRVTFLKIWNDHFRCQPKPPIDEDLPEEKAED
Experiment notes: Competitive binding assay at A1-adenosine receptors, rat cerebral cortex membranes ([3H]PIA or [3H]CHA)
# unit: nM | format: bare number

Tested on A1-adenosine receptors (Rattus norvegicus): CCNC(=O)[C@H]1O[C@@H](n2cnc3c(N)nc(NCCc4ccc(CCC(=O)NCCNC(=S)Nc5cccc(N=C=S)c5)cc4)nc32)[C@H](O)[C@@H]1O . Observed Ki: 69.7

Lab note: compound CCNC(=O)[C@H]1O[C@@H](n2cnc3c(N)nc(NCCc4ccc(CCC(=O)NCCNC(=S)Nc5ccc(N=C=S)cc5)cc4)nc32)[C@H](O)[C@@H]1O tested on A1-adenosine receptors (Rattus norvegicus); recorded Ki was 276

----------
Target entity: A2-adenosine receptors (Rattus norvegicus)
Construct: rat striatal membranes; from tissue; host or cells: rat striatal membranes
Experiment notes: Inhibition of binding of [3H]CGS21680 to A2-adenosine receptors in rat striatal membranes
Recorded conditions: rat striatum; 11, 12 and 14: apparent Ki; read-out: Ki, inhibition of binding of [3H]CGS21680 at A2-receptors
Structures can show the parent of a compound that is named as a salt.
Measurement kind: Ki (µM)

I. CCNC(=O)[C@H]1O[C@@H](n2cnc3c(N)nc(NCCc4ccc(CCC(=O)NCCNC(=O)c5cccc(N)c5)cc4)nc32)[C@H](O)[C@@H]1O
II. CCNC(=O)[C@H]1O[C@@H](n2cnc3c(N)nc(NCCc4ccc(CCC(=O)NCCNC(=S)Nc5ccc(S(=O)(=O)O)cc5)cc4)nc32)[C@H](O)[C@@H]1O [Compound 13, sodium salt]
Higher Ki between I and II ? Indicate which entry you chose by stating its label.
II
